pIC50 listing for selected compounds.
System: Human fibroblast cells (BJ)
Test: MTT cell viability assay on BJ cells
Format: cell-based
Settings: 48 h, MTT
Entry type: numeric. Quantity: pIC50, the -log10 of concentration in molar units.

compound	target.entity	pIC50
CC(=O)C=C([O-])c1ccccc1.[Cu+2].[O-][Cl+3]([O-])([O-])[O-].c1ccc(-c2ccccn2)nc1 [Compound (3), [Cu(bpy)(bzac)]ClO4]	Human fibroblast cells (BJ)	4.98
CC(=O)C=C([O-])c1ccccc1.[Cu+2].[O-][Cl+3]([O-])([O-])[O-].c1cnc2c(c1)ccc1cccnc12 [Compound (1), [Cu(phen)(bzac)(ClO4)]]	Human fibroblast cells (BJ)	5.55
CC(=O)C=C([O-])c1ccccc1.O=[N+]([O-])[O-].[Cu+2].c1ccc(-c2ccccn2)nc1 [Compound (4), [Cu(bpy)(bzac)(NO3)]]	Human fibroblast cells (BJ)	4.99

Let us examine a further case.
Query block: Can you look up the measured pIC50 of CC(=O)C=C([O-])c1ccccc1.O.O=[N+]([O-])[O-].[Cu+2].c1cnc2c(c1)ccc1cccnc12 [Compound (2), [Cu(phen)(bzac)(NO3)]⋅H2O] for me?
Result block: 5.61

---

System: Human fibroblast cells (BJ)
Experiment: MTT cell viability assay on BJ cells
Assay type: cell-based
Conditions: 24 h, MTT
pIC50 listing for selected molecules.
Entry type: numeric. Quantity: pIC50, the -log10 of concentration in molar units.

Please review the entries below; each comes with its answer.
molecule	pIC50
CC(=O)C=C([O-])c1ccccc1.[Cu+2].[O-][Cl+3]([O-])([O-])[O-].c1ccc(-c2ccccn2)nc1 [Compound (3), [Cu(bpy)(bzac)]ClO4]	4.96
CC(=O)C=C([O-])c1ccccc1.O=[N+]([O-])[O-].[Cu+2].c1ccc(-c2ccccn2)nc1 [Compound (4), [Cu(bpy)(bzac)(NO3)]]	4.93
CC(=O)C=C([O-])c1ccccc1.[Cu+2].[O-][Cl+3]([O-])([O-])[O-].c1cnc2c(c1)ccc1cccnc12 [Compound (1), [Cu(phen)(bzac)(ClO4)]]	5.40

Query block: Can you look up the measured pIC50 of CC(=O)C=C([O-])c1ccccc1.O.O=[N+]([O-])[O-].[Cu+2].c1cnc2c(c1)ccc1cccnc12 [Compound (2), [Cu(phen)(bzac)(NO3)]⋅H2O] for me?
Result block: 5.31
